- Tested on: TK-10
- Test name: NCI tumour cell line growth inhibition, 48 h
The source made the active and inactive calls. No stated cut-off is given here; in the data, active = GI50 up to about 1.1 µM and inactive = higher.
Your response should consist of one outcome taken from active, inactive

Answered cases to consult:
COc1ccc(/C(Cl)=C(\CN(C)C)c2ccc(OC)c(OC)c2)cc1OC: inactive
O=C(O)c1[nH]c(C(=O)O)c(CC(F)(F)C(F)(F)C(F)(F)F)c1CC(F)(F)C(F)(F)C(F)(F)F: inactive
Clc1nc(Nc2nc3ccccc3[nH]2)nc(Cl)c1-c1ccccc1: inactive
O=C1/C(=C/c2ccc(O)c(CN3CCCCC3)c2)CCC/C1=C\c1ccc(O)c(CN2CCCCC2)c1: inactive
Cc1ccnc2c1C(=O)C1=C(OC(C)(C)CC1O)C2=O (stereo not given): inactive

Incoming: Which outcome was assigned to O=C(NCCCN(CCCCN(CCCNC(=O)C(F)(F)F)Cc1ccc2ccccc2c1)Cc1ccc2ccccc2c1)C(F)(F)F in this test?
Outgoing: inactive

---

- Test system: NCI-H460
- Test name: NCI tumour cell line growth inhibition, 48 h
The source made the active and inactive calls. No stated cut-off is given here; in the data, active = GI50 up to about 1.1 µM and inactive = higher.
Your response should consist of one outcome taken from 1 (active), -1 (inactive)

Answered cases to consult:
O=C1CN(c2ccccc2)Cc2nc(Cl)ccc2N1: -1
CCOC(=O)C1=CN(Cc2ccccc2)C2ON=C(c3ccc(Cl)cc3)C2C1 (configuration not stated): -1
CCOC(=O)c1nc2cc(C(F)(F)F)ccc2nc1Nc1ccc(C(=O)NC(C(=O)OCC)C(=O)OCC)cc1: -1
CN(O)C(=O)Cc1ccccc1: -1
O=CC12C3CCC1C2C(=O)C3 (configuration not stated): -1
COc1ccc2c(c1OC)C(=O)N/C2=C\c1c(CCN(C)C)cc2c(c1OC)OCO2: -1
O=C(O)CCC(=O)c1ccc2ccc3cccc4ccc1c2c34: -1
N#CC(C#N)=Cn1c(=S)[nH]c2ccc([N+](=O)[O-])cc21: -1
C=CCOc1ccc(C(=N/NC(=O)c2ccccc2)/N=N/c2ccc([N+](=O)[O-])cc2)cc1OC: -1
S=C(N/N=C(/c1ccccc1)c1ccccn1)N(Cc1ccccn1)Cc1ccccn1: 1

Incoming: Which outcome was assigned to OC1=CN=C(c2ccccc2)Oc2ccccc21 in this test?
Outgoing: -1

Incoming: Which outcome was assigned to CC1=C(C(=O)OCCO[N+](=O)[O-])C(c2cccc([N+](=O)[O-])c2)C(C(=O)OC(C)C)=C(C)N1 (configuration not stated) in this test?
Outgoing: -1

Incoming: Which outcome was assigned to CNN1C(=O)c2c(C)c(C)c(C#N)c(N)c2C1=O in this test?
Outgoing: -1

Incoming: Which outcome was assigned to COc1ccc2c(c1)CCc1c-2nc2cc3c(cc2c1O)OCO3 in this test?
Outgoing: -1

Incoming: Which outcome was assigned to COc1ccc(/C(Cl)=C(\CN(C)C)c2ccc(OC)c(OC)c2)cc1OC in this test?
Outgoing: -1

Incoming: Which outcome was assigned to O=c1c(S(=O)(=O)Oc2ccccc2)coc2cc(F)ccc12 in this test?
Outgoing: -1

Incoming: Which outcome was assigned to Brc1ccc2c(-c3csc(-c4c[nH]c5ccccc45)n3)c[nH]c2c1 in this test?
Outgoing: -1

Incoming: Which outcome was assigned to NC1=CN(Cc2ccccc2)C2=N/C(=C\c3ccccc3O)C(=O)N12 in this test?
Outgoing: -1

Incoming: Which outcome was assigned to Cc1cccc(C)c1NC(=O)C(Cc1c[nH]c2ccccc12)NC(=O)OCc1ccccc1 (configuration not stated) in this test?
Outgoing: -1

Incoming: Which outcome was assigned to COc1ccccc1CNC(=O)[C@H](Cc1ccc(O)cn1)NC(C)=O in this test?
Outgoing: -1

Incoming: Which outcome was assigned to CC(=O)Nc1nc(NC(C)=O)c2nc(CO)[nH]c2n1 in this test?
Outgoing: -1

Incoming: Which outcome was assigned to O=C(NC(Cl)(C(F)(F)F)C(F)(F)F)c1ccc(F)cc1 in this test?
Outgoing: -1

---

- Test system: LXFL 529
- Test name: NCI tumour cell line growth inhibition, 48 h
Calls of active or inactive are those of the source. Rule as the data show it: active = GI50 up to about 1.1 µM and inactive = higher.
Measurement label: GI50

# example entries with known answers
O=C1[C@@H]2C(c3ccncc3)=NO[C@@H]2C(=O)N1c1ccc(Cc2ccc(N3C(=O)[C@H]4C(c5ccncc5)=NO[C@H]4C3=O)cc2)cc1: 29.3 µM (inactive)
COc1cc(Nc2cnc3ccc(C(F)(F)F)cc3n2)cc(OC)c1OC: 27.4 µM (inactive)
CC(C)/C=C1\CCC(CN(C)C)C1=O (stereo not given): 1.5 µM (inactive)
COc1ccc([C@H]2c3cc4c(cc3OC(O)(CO)[C@H]2C(=O)O)OCO4)c(OC)c1.COc1ccc([C@H]2c3cc4c(cc3OC3(O)COC(=O)[C@@H]23)OCO4)c(OC)c1 (stereo not given in full): > 100 µM (inactive)
C=C=C(CC)C(C(=O)OC)N(CC)CC (stereo not given): > 100 µM (inactive)

Incoming: Quick one: GI50 of N=C(N)NNC(=O)CCn1[nH]c(=O)c(Cl)c(Cl)c1=O ?
Outgoing: > 100 µM (inactive)

Incoming: Quick one: GI50 of COC(=O)C(C)NP(=O)(N1CC1)N1CC1 (stereo not given) ?
Outgoing: > 100 µM (inactive)

Incoming: Quick one: GI50 of CC1(C)OC2C(O1)[C@H]1OC(C(Cl)(Cl)Cl)=N[C@H]1C(I)[C@H]2N1C(=O)c2ccccc2C1=O (stereo not given in full) ?
Outgoing: 50.2 µM (inactive)

Incoming: Quick one: GI50 of COc1ccc(OC)c2[s+]snc12 ?
Outgoing: 35.6 µM (inactive)

Incoming: Quick one: GI50 of CN(C)[C@@H]1C(O)=C(C(=O)NCNc2nc3[nH]nnc3c(=O)[nH]2)C(=O)[C@@]2(O)C(O)=C3C(=O)c4c(O)cccc4[C@@](C)(O)[C@H]3C[C@@H]12 ?
Outgoing: 53.1 µM (inactive)

---

Known GI50 of a selection of molecules
- Tested on: SK-MEL-28
- Test name: NCI tumour cell line growth inhibition, 48 h
The source made the active and inactive calls. Cut-off read from the data, not from the text of the source: active = GI50 up to about 1.1 µM and inactive = higher.

# example entries with known answers
CC(C)=CCC/C(=C\CC/C(=C\CCc1ccoc1)C(=O)O)C(=O)O: > 100 µM (inactive)
CCc1cn2c(/C=N/N=C(N)N)c(-c3cc(C)c(Cl)cc3Cl)nc2s1: 1.48 µM (inactive)
COc1ccc(/C=N\N(C)Cc2cccc3ccsc23)cc1: > 100 µM (inactive)
C1=Cc2nc1c(-c1ccccc1)c1nc(c(-c3ccccc3)c3ccc([nH]3)c(-c3ccccc3)c3ccc([nH]3)c2-c2ccccc2)C=C1: > 100 µM (inactive)

Incoming: Quick one: GI50 of CN(C)CCn1c(=O)c2ccc(NCCN3CCNCC3)c3c(=O)c4ccccc4n(c1=O)c23 ?
Outgoing: 6.61 µM (inactive)

Incoming: Quick one: GI50 of Fc1cccc2cc3ccc4cccc5ccc(c12)c3c45 ?
Outgoing: > 100 µM (inactive)

Incoming: Quick one: GI50 of CN/C(=N\N)NS(=O)(=O)c1cc(C)c(Cl)cc1S ?
Outgoing: > 100 µM (inactive)

Incoming: Quick one: GI50 of Cc1ccnc2c1C(=O)C1=C(OC(C)(C)CC1O)C2=O (stereo not given) ?
Outgoing: 2.05 µM (inactive)

Incoming: Quick one: GI50 of Cc1ccc(-c2n[nH]c(=O)n2/N=C\c2ccc([N+](=O)[O-])cc2)cc1 ?
Outgoing: > 100 µM (inactive)

Incoming: Quick one: GI50 of O=[N+]([O-])c1ccc2[nH]ncc2c1Cl ?
Outgoing: 33.5 µM (inactive)

---

- Tested on: SW-620
- Test name: NCI tumour cell line growth inhibition, 48 h
Activity calls are given as the source filed them. No stated cut-off is given here; in the data, active = GI50 up to about 1.1 µM and inactive = higher.
Your response should consist of one outcome taken from active, inactive

CN(/N=C/c1ccccn1)C1=NCCN1: inactive

Incoming: Which outcome was assigned to O=C1C=CC(=O)C(N(CCO)CCO)=C1.O=C1C=CC2(O)OCCN(CCO)C2=C1 in this test?
Outgoing: inactive

Incoming: Which outcome was assigned to O=C(NC12CC3CCC1CC(C3)C2)[C@@H]1CCCN1C(=O)OCc1ccccc1 (some centres undefined) in this test?
Outgoing: inactive

Incoming: Which outcome was assigned to Brc1ccc2c(-c3csc(-c4c[nH]c5ccccc45)n3)c[nH]c2c1 in this test?
Outgoing: inactive

Incoming: Which outcome was assigned to COC(=O)Cc1cc(O)c2c(c1O)C(=O)c1ccccc1C2=O in this test?
Outgoing: inactive

Incoming: Which outcome was assigned to O=C1/C(=C/c2ccc(O)c(CN3CCCCC3)c2)CCC/C1=C\c1ccc(O)c(CN2CCCCC2)c1 in this test?
Outgoing: inactive

Incoming: Which outcome was assigned to Cc1cccc(C)c1Nc1nc(C)c(C(=O)CC(=O)C(=O)Nc2c(C(C)C)cccc2C(C)C)s1 in this test?
Outgoing: inactive

Incoming: Which outcome was assigned to COc1ccc([C@H]2c3cc4c(cc3OC(O)(CO)[C@H]2C(=O)O)OCO4)c(OC)c1.COc1ccc([C@H]2c3cc4c(cc3OC3(O)COC(=O)[C@@H]23)OCO4)c(OC)c1 (some centres undefined) in this test?
Outgoing: inactive

Incoming: Which outcome was assigned to Nc1ncnc2c1ncn2C1CC(OCc2ccccc2[N+](=O)[O-])C(CO)O1 (centres undefined) in this test?
Outgoing: inactive

Incoming: Which outcome was assigned to COc1ccc(/C=C/C(=O)c2cc(OC)cc(OC)c2)cc1 in this test?
Outgoing: active

Incoming: Which outcome was assigned to Brc1cccc(Nc2ncnc3sc4c(c23)CCC2(C4)OCCO2)c1 in this test?
Outgoing: active

Incoming: Which outcome was assigned to COc1ccc(NCc2cc(OC)c(OC)c(OC)c2)cc1 in this test?
Outgoing: active
